Target: human IDO1 (Homo sapiens, UniProt P14902)
Sequence (P14902 whole entry): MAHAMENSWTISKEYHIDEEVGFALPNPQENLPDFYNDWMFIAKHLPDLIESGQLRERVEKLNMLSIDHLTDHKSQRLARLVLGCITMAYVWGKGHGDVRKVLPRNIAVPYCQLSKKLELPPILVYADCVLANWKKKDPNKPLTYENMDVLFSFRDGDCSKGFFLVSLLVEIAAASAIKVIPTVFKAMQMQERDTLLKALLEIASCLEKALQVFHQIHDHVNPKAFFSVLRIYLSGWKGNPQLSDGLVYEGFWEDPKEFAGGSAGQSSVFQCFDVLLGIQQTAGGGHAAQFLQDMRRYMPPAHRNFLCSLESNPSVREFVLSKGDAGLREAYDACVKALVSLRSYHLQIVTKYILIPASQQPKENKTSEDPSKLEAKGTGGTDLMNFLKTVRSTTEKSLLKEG
Test: Assessment of human IDO-1 inhibitory activity in Hela cells (Interferon-gamma stimulated HeLa cells, Ehrlich reagent, absorbance 490 nm)
Format: cell-based
Set-up: endogenous in cells; host or cells: HeLa cells stimulated with interferon-gamma
Conditions: Hela Human IDO-1 cellular assay
pIC50: −log10 of the molar value.
TEST READOUT: pIC50

Can you look up pIC50 on human IDO1 (Homo sapiens, UniProt P14902) for CCCN(c1ccc(C(C)(C)CC(=O)O)cc1Nc1cnc(OC)nc1)C1CCOCC1 [Example 23] ?
> 7.30

Can you look up pIC50 on human IDO1 (Homo sapiens, UniProt P14902) for CCN(c1ccc(C(CC)(CC)CC(=O)O)cc1Nc1ccc(Cl)cc1)C1CCOCC1 [Example 26] ?
> 8.30

Can you look up pIC50 on human IDO1 (Homo sapiens, UniProt P14902) for CCC(CC(=O)O)c1cc(Nc2ccc(C#N)cn2)c(N(CC)C2CCOCC2)cc1F (single isomer, unassigned) [Example 857] ?
> 7.30
